endpoint.name: melting point

{"columns": ["smiles.entry", "observed.result"],
 "data": [
  ["CS(=O)(=O)c1ccc(-n2nc(C(F)(F)F)cc2-c2ccc(-c3cscn3)cc2)cc1F", "125 to 127 °C"],
  ["O=C(Nc1nc2cnccc2s1)N1CCCC1", "218 to 220 °C"],
  ["COc1ccccc1Nc1nc(-c2ccccn2)cs1", "165 to 166 °C"]
]}

###

Measured melting point accompanies every entry in the list below.

{"columns": ["compound", "melting point"],
 "data": [
  ["NCc1cccc2c1CN(c1nc3c(cc1F)c(=O)c(C(=O)O)cn3C1CC1)C2", "> 300 °C"],
  ["CCCN(CCOc1c(Cl)cccc1Cl)C1CCc2c(ccc(OCc3ccc(OC(=O)C(C)C)cc3)c2OCc2ccc(OC(=O)C(C)C)cc2)C1 (stereo not drawn)", "84 to 86 °C"],
  ["Cc1[nH]cc2c1-c1ccc(Cl)cc1C(c1ccccc1F)=NC2", "226 to 227 °C"]
]}
